Recorded measurements of Breaths per min., one per entry
- assay_notes: Respiration rate (respiratory depression)
- Format: in vivo, rat
- condition_parameters: dose 30 mg/kg; control 142 ± 5
Non-standard residues stand in square brackets, D forms with d. Residues, ends and D or L forms follow the SMILES beside them. dNle = CCCC[C@@H](N)C(=O)O; Orn = NCCC[C@H](N)C(=O)O
Answer with a number only, understood to be in breaths per min..

Example entries and their recorded answers appear below.
compound="NCCCC[C@H](NC(=O)[C@H](Cc1ccccc1)NC(=O)[C@@H](CCCN=C(N)N)NC(=O)[C@@H](N)Cc1ccc(O)cc1)C(N)=O [BCH-150, H-Tyr-D-Arg-Phe-Lys-NH2]" readout_label="Breaths per min." result=121
compound="CC(C)[C@@H](NC(=O)[C@@H](N)Cc1ccc(O)cc1)C(=O)N[C@@H](Cc1ccccc1)C(=O)N[C@@H](CCCCN)C(N)=O [BCH-2206, H-Tyr-D-Val-Phe-Lys-NH2] (H-Y[dV]FK-NH2)" readout_label="Breaths per min." result=168
compound="CCCC[C@@H](NC(=O)[C@@H](N)Cc1ccc(O)cc1)C(=O)N[C@@H](Cc1ccccc1)C(=O)N[C@@H](CCCN)C(N)=O [BCH-1763, H-Tyr-D-Nle-Phe-Orn-NH2] (H-Y[dNle]F[Orn]-NH2)" readout_label="Breaths per min." result=162
compound="CN1CC[C@]23c4c5ccc(O)c4O[C@H]2[C@@H](O)C=C[C@H]3[C@H]1C5 [morphine, reference compound]" readout_label="Breaths per min." result=104

Let's switch to this compound now.
Requested read-out: Breaths per min.. Entry: C[C@@H](NC(=O)[C@@H](N)Cc1ccc(O)cc1)C(=O)N[C@@H](Cc1ccccc1)C(=O)N[C@@H](CCCCN)C(N)=O [BCH-1789, H-Tyr-D-Ala-Phe-Lys-NH2] (H-Y[dA]FK-NH2)
182

----------
- assayed_system: δ-opioid receptor (Rattus norvegicus, UniProt P33533)
- Construct: displacement of the radioligands from the rat brain membrane preparations; from tissue; host or cells: rat brain membrane preparations
- Sequence (P33533 whole entry): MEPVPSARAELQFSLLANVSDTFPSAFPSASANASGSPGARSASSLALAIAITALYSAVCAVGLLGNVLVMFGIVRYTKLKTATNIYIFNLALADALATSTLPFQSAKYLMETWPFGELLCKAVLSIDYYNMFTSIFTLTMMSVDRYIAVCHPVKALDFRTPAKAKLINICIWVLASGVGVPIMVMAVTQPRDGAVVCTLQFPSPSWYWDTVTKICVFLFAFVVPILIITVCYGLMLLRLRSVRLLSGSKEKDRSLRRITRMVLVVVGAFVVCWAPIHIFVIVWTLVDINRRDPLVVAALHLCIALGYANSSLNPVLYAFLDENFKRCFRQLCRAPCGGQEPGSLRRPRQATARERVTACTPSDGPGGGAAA
- assay_notes: biochemical
- Type: binding
Non-standard residues stand in square brackets, D forms with d. Residues, ends and D or L forms follow the SMILES beside them. Orn = NCCC[C@H](N)C(=O)O; Dab = NCC[C@H](N)C(=O)O
Recorded pKi for the following compounds
Interpret pKi as the negative base-10 log of the concentration measured in mol/L.

Please review the following examples before continuing.
compound="NCCC[C@H](NC(=O)[C@H](Cc1ccccc1)NC(=O)[C@@H](Cc1ccccc1)NC(=O)[C@@H](N)Cc1ccc(O)cc1)C(N)=O [BCH-2457, H-Tyr-D-Phe-Phe-Orn-NH2] (H-Y[dF]F[Orn]-NH2)" result=5.61
compound="N=C(N)NCCC[C@H](NC(=O)[C@H](Cc1ccccc1)NC(=O)[C@@H](CCCNC(=N)N)NC(=O)[C@@H](N)Cc1ccc(O)cc1)C(N)=O [BCH-1766, H-Tyr-D-Arg-Phe-Arg-NH2] (H-Y[dR]FR-NH2)" result=4.92
compound="CC(C)[C@@H](NC(=O)[C@@H](N)Cc1ccc(O)cc1)C(=O)N[C@@H](Cc1ccccc1)C(=O)N[C@@H](CCCN)C(N)=O [BCH-2458, H-Tyr-D-Val-Phe-Orn-NH2] (H-Y[dV]F[Orn]-NH2)" result=5.06
compound="N=C(N)NCCC[C@@H](NC(=O)[C@@H](N)Cc1ccc(O)cc1)C(=O)N[C@@H](Cc1ccccc1)C(=O)N[C@@H](CCN)C(N)=O [BCH-1764, H-Tyr-D-Arg-Phe-A2 bu-NH2] (H-Y[dR]F[Dab]-NH2)" result=4.90
compound="NCCCC[C@H](NC(=O)[C@H](Cc1ccccc1)NC(=O)[C@@H](Cc1ccccc1)NC(=O)[C@@H](N)Cc1ccc(O)cc1)C(N)=O [BCH-2460, H-Tyr-D-Phe-Phe-Lys-NH2] (H-Y[dF]FK-NH2)" result=5.72
compound="CC(C)C[C@@H](NC(=O)[C@@H](N)Cc1ccc(O)cc1)C(=O)N[C@@H](Cc1ccccc1)C(=O)N[C@@H](CCN)C(N)=O [BCH-2474, H-Tyr-D-Leu-Phe-A2 bu-NH2] (H-Y[dL]F[Dab]-NH2)" result=4.88
compound="NCC[C@H](NC(=O)[C@H](Cc1ccccc1)NC(=O)[C@@H](Cc1ccccc1)NC(=O)[C@@H](N)Cc1ccc(O)cc1)C(N)=O [BCH-2466, H-Tyr-D-Phe-Phe-A2 bu-NH2] (H-Y[dF]F[Dab]-NH2)" result=5.85

Now consider a different compound.
Write down the reported pKi of C[C@@H](NC(=O)[C@@H](N)Cc1ccc(O)cc1)C(=O)N[C@@H](Cc1ccccc1)C(=O)N[C@@H](CCCCN)C(N)=O [BCH-1789, H-Tyr-D-Ala-Phe-Lys-NH2] (H-Y[dA]FK-NH2) , test system: δ-opioid receptor (Rattus norvegicus, UniProt P33533).
5.35

----------
- assayed_system: μ-opioid receptor (Rattus norvegicus)
- Construct: displacement of the radioligands from the rat brain membrane preparations; from tissue; host or cells: rat brain membrane preparations
- Sequence (P33535 whole entry): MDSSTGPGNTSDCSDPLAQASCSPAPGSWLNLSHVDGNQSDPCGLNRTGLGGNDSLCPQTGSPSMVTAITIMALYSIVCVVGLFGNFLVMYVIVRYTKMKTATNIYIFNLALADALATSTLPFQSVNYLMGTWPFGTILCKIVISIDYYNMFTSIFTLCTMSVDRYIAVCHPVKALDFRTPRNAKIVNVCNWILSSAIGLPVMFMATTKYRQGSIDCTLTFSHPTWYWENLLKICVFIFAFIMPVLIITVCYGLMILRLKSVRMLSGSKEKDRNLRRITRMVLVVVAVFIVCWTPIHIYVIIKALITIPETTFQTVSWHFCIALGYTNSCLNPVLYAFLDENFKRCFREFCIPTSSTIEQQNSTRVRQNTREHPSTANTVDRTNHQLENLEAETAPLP
- assay_notes: biochemical
- Assay type: binding
Non-standard residues stand in square brackets, D forms with d. Residues, ends and D or L forms follow the SMILES beside them. dNle = CCCC[C@@H](N)C(=O)O; dDab = NCC[C@@H](N)C(=O)O; Orn = NCCC[C@H](N)C(=O)O; Dab = NCC[C@H](N)C(=O)O
Reported Ki^δ /Ki^μ is given for each of the following compounds.
Output: the number by itself.

Sample answers from the record:
compound="NCC[C@H](NC(=O)[C@H](Cc1ccccc1)NC(=O)[C@@H](Cc1ccccc1)NC(=O)[C@@H](N)Cc1ccc(O)cc1)C(N)=O [BCH-2466, H-Tyr-D-Phe-Phe-A2 bu-NH2] (H-Y[dF]F[Dab]-NH2)" result=507.59
compound="CC[C@@H](C)[C@@H](NC(=O)[C@@H](N)Cc1ccc(O)cc1)C(=O)N[C@@H](Cc1ccccc1)C(=O)N[C@@H](CCN)C(N)=O [BCH-2468, H-Tyr-D-Ile-Phe-A2 bu-NH2] (H-Y[dI]F[Dab]-NH2)" result=260.61
compound="N=C(N)NCCC[C@@H](NC(=O)[C@@H](N)Cc1ccc(O)cc1)C(=O)N[C@@H](Cc1ccccc1)C(=O)N[C@@H](CCN)C(N)=O [BCH-1764, H-Tyr-D-Arg-Phe-A2 bu-NH2] (H-Y[dR]F[Dab]-NH2)" result=2180
compound=N=C(N)NCCC[C@@H](NC(=O)[C@@H](N)Cc1ccc(O)cc1)C(=O)N[C@@H](Cc1ccccc1)C(=O)N[C@@H](CCCN)C(N)=O result=7740
compound="NCCC[C@H](NC(=O)[C@H](Cc1ccccc1)NC(=O)[C@@H](CCN)NC(=O)[C@@H](N)Cc1ccc(O)cc1)C(N)=O [BCH-2580, H-Tyr-D-A2 bu-Phe-Orn-NH2] (H-Y[dDab]F[Orn]-NH2)" result=411.98

Field: next compound
Which Ki^δ /Ki^μ reading was recorded for the compound CCCC[C@@H](NC(=O)[C@@H](N)Cc1ccc(O)cc1)C(=O)N[C@@H](Cc1ccccc1)C(=O)N[C@@H](CCCN)C(N)=O [BCH-1763, H-Tyr-D-Nle-Phe-Orn-NH2] (H-Y[dNle]F[Orn]-NH2) ?
2130

----------
Here the recorded Breaths per min. is given for each entry.
- assay_notes: Respiration rate (respiratory depression)
- Assay type: in vivo, rat
- condition_parameters: dose 30 mg/kg; control 142 ± 5
Non-standard residues stand in square brackets, D forms with d. Residues, ends and D or L forms follow the SMILES beside them. dNle = CCCC[C@@H](N)C(=O)O; dNva = CCC[C@@H](N)C(=O)O; Orn = NCCC[C@H](N)C(=O)O; Nva = CCC[C@H](N)C(=O)O
Value expressed in breaths per min.; do not type the unit.

Illustrative cases are given below, each with its answer.
compound="CCCC[C@@H](NC(=O)[C@@H](N)Cc1ccc(O)cc1)C(=O)N[C@@H](Cc1ccccc1)C(=O)N[C@@H](CCCCN)C(N)=O [BCH-2205, H-Tyr-D-Nle-Phe-Lys-NH2] (H-Y[dNle]FK-NH2)" readout_label="Breaths per min." result=158
compound="CCC[C@H](NC(=O)[C@H](Cc1ccccc1)NC(=O)[C@@H](CCCNC(=N)N)NC(=O)[C@@H](N)Cc1ccc(O)cc1)C(N)=O [BCH-1788, H-Tyr-D-Arg-Phe-Nva-NH2] (H-Y[dR]F[Nva]-NH2)" readout_label="Breaths per min." result=163

Here's the next entry for you.
Recorded Breaths per min. for CCC[C@@H](NC(=O)[C@@H](N)Cc1ccc(O)cc1)C(=O)N[C@@H](Cc1ccccc1)C(=O)N[C@@H](CCCN)C(N)=O [BCH-752, H-Tyr-D-Nva-Phe-Orn-NH2] (H-Y[dNva]F[Orn]-NH2) , please?
122
